- Tested on: human breast cancer cell line (MCF-7)
- test description: MTT assay, cytotoxicity
- Assay type: cell-based
- condition description: MCF-7; 39.0625 μg/ml; 24 hours
- Method: Cancer cell lines were manipulated according to the method described by Sigounas et al.. […] The 3-[4,5-dimethylthiazol-2-yl]-2,5-diphenyltetrazolium bromide (MTT) colorimetric assay was used to examine the sensitivity of cells to tested compounds (as anticancer drugs), as previously described. […] The percentage of cell survival was calculated as follows: (1) Percentage of survival=O.D.treated cells/O.D.control cells×100. […]
assay readout: survival percentage (mean ± SEM)

Observe how each entry below is paired with its result.
>>> df
                              sample_smiles                     assay_readout  endpoint_value
0  CCOC(=O)Cn1c(SCC(=O)Nc2ccc(C(=O)/C=C\c3ccccc3Cl)cc2)nc2sc3c(c2c1=O)CCN(C(=O)OCC)C3  survival percentage (mean ± SEM)  129.1 ± 0.038%
1  CCOCc1nc2sc3c(c2c(=O)n1CC(=O)Nc1ccc(C(=O)/C=C\c2cccc([N+](=O)[O-])c2)cc1)CCN(C(=O)OCC)C3  survival percentage (mean ± SEM)  122.6 ± 0.121%
2  CCOC(=O)Cn1c(SCC(=O)Nc2ccc(C(=O)/C=C\c3cccc([N+](=O)[O-])c3)cc2)nc2sc3c(c2c1=O)CCN(C(=O)OCC)C3  survival percentage (mean ± SEM)  132.0 ± 0.136%
3  CCOC(=O)Cn1c(SCC(=O)Nc2ccc(C(=O)/C=C\c3cccc([N+](=O)[O-])c3)cc2)nc2sc3c(c2c1=O)CC(C)(C)NC3(C)C  survival percentage (mean ± SEM)   81.0 ± 0.009%
4  CCOC(=O)Cn1c(SCC(=O)Nc2ccc(C(=O)/C=C\c3cc(OC)c(OC)c(OC)c3)cc2)nc2sc3c(c2c1=O)CCN(C(=O)OCC)C3  survival percentage (mean ± SEM)   31.8 ± 0.009%

Okay, now this compound:
// query survival percentage (mean ± SEM) value for entry CCOC(=O)N1CCc2c(sc3nc(SCC(=O)Nc4ccc(C(=O)/C=C\c5cc(OC)c(OC)c(OC)c5)cc4)[nH]c(=O)c23)C1
129.1 ± 0.033%

Recorded values, source paper PMC8728392.
